Data origin: paper PMC7554688

# Kd per record follows
ASSAYED SYSTEM: T1, GST-IL-33 (mature form of interleukin 33, residues 112-270) (human, UniProt O95760)
T1 construct: Interleukin-33, human, mature form / IL-1-like cytokine domain, residues 112-270; Synthesised gene in the parallel GST-2 vector; also called GST-IL-33 WT; GST-IL-33_(112)-270; source: E. coli BL21 (DE3), purified (Glutathione Sepharose 4B); not shown: GST, N-terminal, kept
T1 sequence (O95760 112-270): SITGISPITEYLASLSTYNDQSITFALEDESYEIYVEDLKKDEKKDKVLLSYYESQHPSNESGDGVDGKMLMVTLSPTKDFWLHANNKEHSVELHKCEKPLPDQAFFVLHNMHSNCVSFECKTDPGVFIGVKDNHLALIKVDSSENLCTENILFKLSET
METHOD: ELISA; E. coli cell lysates containing overexpressed His6-tagged scFvs against GST-IL-33; the text says ELISA, the legend 'kinetic analysis'; the methods tell of lysates only for BLI (BLItz; lysate scFv on Ni-NTA biosensors, GST-IL-33 at 2, 1, 0.5 and 0.25 uM, Kd = koff/kon)
CONDITION CONTEXT: one partner purified
Unit nM implied. Number only.

Example entries begin here.
{"columns": ["BINDER", "UNIT STRING", "READOUT NUMBER"],
 "data": [
  ["C2_2E1 (scFv, V domains shown, selected from a synthetic human scFv library by phage display; also called anti-IL-33 scFv clone C2_2E1; source: E. coli BL21 (DE3), in cell lysate; purified (Ni-NTA, SEC)) VH: EVQLLESGGGLVQPGGSLRLSCAASGFTFSSYYMSWVRQAPGRGLEWVSAISPGSSNKYYADSVKGRFTISRDNSKNTLYLQMNSLRAEDTAVYYCARMTSSFDYWGQGTLVTVSS VL: QSVLTQPPSASGTPGQRVTISCSGSSSNIGNNDVSWYQQLPGTAPKLLIYSDSQRPSGVPDRFSGSKSGTSASLAISGLRSEDEADYYCGSWDYSLSAYVFGGGTKLTVL", "nM", 35],
  ["C2_1D5 (scFv, V domains shown, selected from a synthetic human scFv library by phage display; also called anti-IL-33 scFv clone C2_1D5; source: E. coli BL21 (DE3), in cell lysate; purified (Ni-NTA, SEC)) VH: EVQLLESGGGLVQPGGSLRLSCAASGFTFSSYYMSWVRQAPGKGLEWVSAISPGSSNKYYADSVKGRFTISRDNSKNTLYLQMNSLRAEDTAVYYCARLLSAFDYWGQGTLVTVSS VL: QSVLTQPPSASGTPGQRVTISCSGSSSNIGSNDVSWYQQLPGTAPKLLIYSDSNRPSGVPDRFSGSKSGTSASLAISGLRSEDEADYYCGAWDSSLSGYVFGGGTKLTVL", "nM", 36]
]}

// switching to the query binder
[ask] Quick one: Kd of C2_2E12 (scFv, V domains shown, selected from a synthetic human scFv library by phage display; Fab and IgG formats were made but no result is told for them; also called anti-IL-33 scFv clone C2_2E12; C2_2E12 antibody; source: E. coli BL21 (DE3), in cell lysate and purified (Ni-NTA, SEC); scFv also expressed in Expi293F, purified (Ni-NTA, SEC)) VH: EVQLLESGGGLVQPGGSLRLSCAASGFTFSSYYMSWVRQAPGKGLEWVSAISPGSSNKYYADSVKGRFTISRDNSKNTLYLQMNSLRAEDTAVYYCARLTLSFDYWGQGTPVTVSS VL: QSVLTQPPSASGTPGQRVTISCSGSSSNIGSNDVSWYQQLPGTAPKLLIYADSKRPSGVPDRFSGSKSGTSASLAISGLRSEDEADYYCASWDSSLSAYVFGGGTKLTVL ?
[reply] 28
